assay: Solubility in water; type: physicochemical; conditions: pH 8.5 water, pH 8.5, aqueous buffer; read-out: solubility in pH 8.5 water
Measured Parameter: solubility (mg/mL)
// return numeric value only (unit: mg/mL, not printed)

Prompt: Give the value of solubility reported for the following: O=C(Nc1cc(C(F)(F)F)cc(C(F)(F)F)c1)c1cc(Cl)ccc1OP(=O)([O-])[O-].[Na+].[Na+] [bis sodium salt]
Response: 20

====

assay: Solubility in water; type: physicochemical; conditions: water; read-out: solubility in water
Measured Parameter: solubility (µg/mL)
// return numeric value only (unit: µg/mL, not printed)

Prompt: Give the value of solubility reported for the following: O=C(Nc1cc(C(F)(F)F)cc(C(F)(F)F)c1)c1cc(Cl)ccc1O
Response: 3
